Listing: T½ of selected binders
target: hErbB3.mmh (soluble monomeric human ErbB3 extracellular domain with C-terminal myc-myc-hexahistidine tag) (human, UniProt P21860 20-642); test: SPR (Biacore), 25 C, mAb capture format
Sequence (P21860 other isoform, or with tags, fused parts or gaps): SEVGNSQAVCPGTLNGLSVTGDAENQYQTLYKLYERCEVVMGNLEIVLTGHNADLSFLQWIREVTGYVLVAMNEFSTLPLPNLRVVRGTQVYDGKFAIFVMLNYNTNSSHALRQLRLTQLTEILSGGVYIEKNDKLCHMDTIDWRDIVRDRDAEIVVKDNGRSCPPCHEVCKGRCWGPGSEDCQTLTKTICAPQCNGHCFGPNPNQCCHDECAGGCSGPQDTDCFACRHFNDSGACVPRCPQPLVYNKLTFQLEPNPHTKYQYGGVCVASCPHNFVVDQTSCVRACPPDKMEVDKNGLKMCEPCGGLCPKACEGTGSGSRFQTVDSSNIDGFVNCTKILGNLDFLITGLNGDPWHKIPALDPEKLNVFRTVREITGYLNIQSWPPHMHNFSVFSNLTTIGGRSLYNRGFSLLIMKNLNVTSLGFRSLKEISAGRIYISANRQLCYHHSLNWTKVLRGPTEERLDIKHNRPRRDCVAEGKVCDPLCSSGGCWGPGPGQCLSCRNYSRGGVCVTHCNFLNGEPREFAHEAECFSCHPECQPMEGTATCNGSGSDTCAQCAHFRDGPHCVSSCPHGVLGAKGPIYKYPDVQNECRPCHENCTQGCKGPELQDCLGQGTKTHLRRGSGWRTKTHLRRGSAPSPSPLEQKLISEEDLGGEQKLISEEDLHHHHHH
All answers are understood in min, so give the number only.

Binder	Readout Value
H4H2108P (antibody, V domains shown, Fully human, human IgG4 Fc (H4H prefix)) VH: EVQLLESGGDLVQPGGSLRLSCATSGFSFSSDAMNWVRQAPGKGLEWVSGISGSGGNTYYADSVKGRFTISRDISKSTLSLQMNSLRAEDTAVYYCAKEGTNMVRGVVMEDNGMDVWGQGTTVTVSA VL: DIQMTQSPSSVSASVGDRVTITCRASQGISDYLAWYQQKPGKAPKLLIYAASSLQSGVPSRFSGRGSGTDFTLTISTLQPEDFATYYCQQANSFPLTFGGGTKVDIKR	131

Prompt line: What measured T½ goes with H1M1819N (antibody, V domains shown, Hybridoma chimeric antibody: human variable domains, mouse constant domains (H1M prefix, mouse Fc)) VH: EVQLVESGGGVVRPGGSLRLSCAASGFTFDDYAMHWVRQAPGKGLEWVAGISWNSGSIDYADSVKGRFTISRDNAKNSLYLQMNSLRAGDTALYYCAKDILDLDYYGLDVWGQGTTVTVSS VL: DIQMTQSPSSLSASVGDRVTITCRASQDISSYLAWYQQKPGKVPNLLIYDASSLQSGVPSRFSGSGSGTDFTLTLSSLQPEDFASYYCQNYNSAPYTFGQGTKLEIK ?
Response line: 36

Data provenance is patent US20140072563A1.
